- Tested on: crabgrass, large (large crabgrass, Digitaria sanguinalis)
- Method summary: Test C greenhouse herbicide test, pre- and postemergence
- Format: in vivo
- Experimental conditions: Preemergence, 62 g ai/ha; scale 0 to 100, 0 is no effect, 100 is complete control
Parameter: Plant response rating, Crabgrass, Large

Compound	Reported result
CC(=O)Oc1c(C)nn(C)c(=O)c1-c1c(C)sc2ccc(C)cc12 [Compound 25]	75
CCC(=O)Oc1c(C)nn(C)c(=O)c1-c1c(C)sc2ccc(C)cc12 [Compound 42]	70
CC(=O)Oc1c(C)nn(C)c(=O)c1-c1ccc(F)c2ccccc12 [Compound 90]	70
Cc1cc(C)c2ccccc2c1-c1c(OS(C)(=O)=O)c(C)nn(C)c1=O [Compound 154]	85
CCC(=O)Oc1c(C)nn(C)c(=O)c1-c1c(C)sc2c(C)cc(C)cc12 [Compound 28]	60
Cc1cc(C)c2sc(C)c(-c3c(OC(=O)OCCCl)c(C)nn(C)c3=O)c2c1 [Compound 85]	85

###

- Test system: galium (catchweed bedstraw, Galium aparine)
- Method summary: Test D controlled growth environment herbicide test, pre- and postemergence
- Format: in vivo
- Experimental conditions: Preemergence, 62 g ai/ha; scale 0 to 100 (0 no effect, 100 complete control)
# binarize Plant response rating, Galium: threshold 80 inclusive, high side 1.0, low side 0.0

Cc1ccc2sc(C)c(-c3c(O)c(C)nn(C)c3=O)c2c1 1.0
COc1nn(C)c(=O)c(-c2c(C)ccc3ccccc23)c1OC(=O)OC(C)C 0.0
CC(=O)Oc1c(C)nn(C)c(=O)c1-c1c(C)sc2ccc(C)cc12 1.0
CCC(=O)Oc1c(C)nn(C)c(=O)c1-c1c(C)sc2ccc(C)cc12 1.0
Cc1ccc2ccc(C)c(-c3c(O)c(C)nn(C)c3=O)c2c1 1.0

###

- Tested on: barnyardgrass (Echinochloa crus-galli)
- Method summary: Test C greenhouse herbicide test, pre- and postemergence
- Type: in vivo
- Experimental conditions: Postemergence, 250 g ai/ha; scale 0 to 100, 0 no effect, 100 complete control; 13 to 15 d
Form field: Plant response rating, Barnyardgrass (one value per entry).
Parameter: Plant response rating, Barnyardgrass

CCC(=O)Oc1c(Cl)nn(C)c(=O)c1-c1c(C)sc2ccc(Cl)cc12 40
CCOC(=O)Oc1c(C)nn(C)c(=O)c1-c1c(C)sc2c(C)cc(C)cc12 45
COC(=O)Oc1c(C)nn(C)c(=O)c1-c1c(C)sc2c(C)cc(C)cc12 60
CCC(=O)Oc1c(C)nn(C)c(=O)c1-c1ccc(Br)c2ccccc12 35
Cc1sc2ccc(Cl)cc2c1-c1c(OS(C)(=O)=O)c(Cl)nn(C)c1=O 40
CCC(=O)Oc1c(C)nn(C)c(=O)c1-c1c(C)sc2c(C)cc(C)cc12 40
Cc1cc(C)c2sc(C)c(-c3c(OC(=O)OCCCl)c(C)nn(C)c3=O)c2c1 50
Cc1cc(C)c2sc(C)c(-c3c(OC(=O)OC(C)C)c(C)nn(C)c3=O)c2c1 45
Cc1ccc(-c2c(O)c(Br)nn(C)c2=O)c2ccccc12 10
Cc1nn(C)c(=O)c(-c2cccc3ccc(C#N)cc23)c1O 25
Cc1ccc2ccccc2c1-c1c(O)c(C)nn(C)c1=O 70

###

- System: wheat, winter (winter wheat, Triticum aestivum)
- Method summary: Test D controlled growth environment herbicide test, pre- and postemergence
- Type: in vivo
- Experimental conditions: Preemergence, 31 g ai/ha
- Source text: […]
Form field: Plant response rating (scale of 0 to 100), Wheat, Winter (one value per entry).
Parameter: Plant response rating (scale of 0 to 100), Wheat, Winter

CCC(=O)Oc1c(C)nn(C)c(=O)c1-c1c(C)sc2ccc(C)cc12 0
CC(=O)Oc1c(C)nn(C)c(=O)c1-c1c(C)cc(C)c2ccccc12 5
CCC(=O)Oc1c(C)nn(C)c(=O)c1-c1c(C)sc2ccc(Cl)cc12 0
CC(=O)Oc1c(C)nn(C)c(=O)c1-c1c(C)sc2c(C)cc(C)cc12 0
CCOC(=O)Oc1c(C)nn(C)c(=O)c1-c1c(C)ccc2ccccc12 15

###

Form field: Plant response rating, Wheat (one value per entry).
- Tested on: wheat (Triticum aestivum)
- Method summary: Test A greenhouse herbicide test, pre- and postemergence
- Format: in vivo
- Experimental conditions: Postemergence, 500 g ai/ha; visual rating after approx. 10 d, 0 to 100 scale (0 no effect, 100 complete control)
Parameter: Plant response rating, Wheat

CC(=O)Oc1c(C)nn(C)c(=O)c1-c1c([N+](=O)[O-])ccc2ccccc12 0
CC(=O)Oc1c(C)nn(C)c(=O)c1-c1c(C(F)(F)F)ccc2ccccc12 60
C#Cc1ccc2cccc(-c3c(O)c(C)nn(C)c3=O)c2c1 20
CCC(=O)Oc1c(C)nn(C)c(=O)c1-c1c(C(F)(F)F)ccc2ccccc12 80

###

- Test system: lambsquarters (Chenopodium album)
- Method summary: Test C greenhouse herbicide test, pre- and postemergence
- Format: in vivo
- Experimental conditions: Postemergence, 125 g ai/ha; scale 0 to 100, 0 is no effect, 100 is complete control
Parameter: Plant response rating, Lambsquarters

Cc1ccc2ccccc2c1-c1c(O)cnn(C)c1=O 85
Cc1ccc2sc(C)c(-c3c(O)c(C)nn(C)c3=O)c2c1 100
Cc1cc(C)c2sc(C)c(-c3c(OC(=O)OCCCl)c(C)nn(C)c3=O)c2c1 100
Cc1nn(C)c(=O)c(-c2c(C)sc3ccc(Cl)cc23)c1O 100

###

- System: ryegrass, Italian (Italian ryegrass, Lolium multiflorum)
- Method summary: Test C greenhouse herbicide test, pre- and postemergence
- Type: in vivo
- Experimental conditions: Postemergence, 125 g ai/ha; scale 0 to 100, 0 is no effect, 100 is complete control
Binarize Plant response rating, Ryegrass, Italian at 90; below is T, at or above is F.

Compound	Subject of test	Qualitative label
COc1ccc2ccccc2c1-c1c(O)c(C)nn(C)c1=O [Compound 40]	ryegrass, Italian (Italian ryegrass, Lolium multiflorum)	T
Cc1nn(C)c(=O)c(-c2cc(F)cc3ccccc23)c1OS(C)(=O)=O [Compound 115]	ryegrass, Italian (Italian ryegrass, Lolium multiflorum)	F
CC(=O)Oc1c(C)nn(C)c(=O)c1-c1c(C)oc2c(C)cc(C)cc12 [Compound 16]	ryegrass, Italian (Italian ryegrass, Lolium multiflorum)	T
CCC(=O)Oc1c(Cl)nn(C)c(=O)c1-c1c(C)sc2ccc(Cl)cc12 [Compound 111]	ryegrass, Italian (Italian ryegrass, Lolium multiflorum)	F
C#CCOC(=O)Oc1c(C)nn(C)c(=O)c1-c1c(C)sc2ccc(C)cc12 [Compound 87]	ryegrass, Italian (Italian ryegrass, Lolium multiflorum)	T

###

- System: mustard, wild (wild mustard, Sinapis arvensis)
- Method summary: Test D controlled growth environment herbicide test, pre- and postemergence
- Assay type: in vivo
- Experimental conditions: Postemergence, 31 g ai/ha; scale 0 to 100 (0 no effect, 100 complete control)
- From the text: […]
Form field: Mustard, Wild plant response rating (one value per entry).
Parameter: Mustard, Wild plant response rating

CCOC(=O)Oc1c(C)nn(C)c(=O)c1-c1c(C)ccc2ccccc12 85
Cc1ccc2ccc(C)c(-c3c(O)c(C)nn(C)c3=O)c2c1 75
CC(=O)Oc1c(C)nn(C)c(=O)c1-c1c(C)cc(C)c2ccccc12 98
CC(=O)Oc1c(C)nn(C)c(=O)c1-c1c(C)sc2c(C)cc(C)cc12 15
CCOC(=O)Oc1c(C)nn(C)c(=O)c1-c1c(C)sc2ccc(C)cc12 25

###

- Test system: pigweed (Amaranthus retroflexus)
- Method summary: Test C greenhouse herbicide test, pre- and postemergence
- Assay type: in vivo
- Experimental conditions: Postemergence, 31 g ai/ha; 0 to 100 scale (0 no effect, 100 complete control)
Parameter: Pigweed plant response rating

Molecule	Subject of test	Reported result
Cc1ccc2ccccc2c1-c1c(O)cnn(C)c1=O [Compound 56]	pigweed (Amaranthus retroflexus)	80
CC(=O)Oc1c(C)nn(C)c(=O)c1-c1c(C)sc2c(C)cc(C)cc12 [Compound 27]	pigweed (Amaranthus retroflexus)	55
Cc1cc(C)c2ccccc2c1-c1c(O)cnn(C)c1=O [Compound 51]	pigweed (Amaranthus retroflexus)	60
Cc1cc(C)c2sc(C)c(-c3c(OC(=O)OC(C)C)c(C)nn(C)c3=O)c2c1 [Compound 67]	pigweed (Amaranthus retroflexus)	100
COc1nn(C)c(=O)c(-c2c(C)ccc3ccccc23)c1O [Compound 54]	pigweed (Amaranthus retroflexus)	85

###

- System: ryegrass, Italian (Italian ryegrass, Lolium multiflorum)
- Method summary: Test D controlled growth environment herbicide test, pre- and postemergence
- Type: in vivo
- Experimental conditions: Preemergence, 250 g ai/ha; scale 0 to 100 (0 no effect, 100 complete control)
- Source text: […]
Form field: Plant response rating, Ryegrass, Italian (one value per entry).
Parameter: Plant response rating, Ryegrass, Italian

COC(=O)Oc1c(C)nn(C)c(=O)c1-c1c(C)sc2c(C)cc(C)cc12 100
CCOC(=O)Oc1c(C)nn(C)c(=O)c1-c1c(C)sc2ccc(C)cc12 95
COc1nn(C)c(=O)c(-c2c(C)ccc3ccccc23)c1O 100
CC(=O)Oc1c(C)nn(C)c(=O)c1-c1c(C)sc2ccc(C)cc12 100

Sourced from patent US10597388B2
